- Tested on: Saccharomyces cerevisiae;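 further: PSI is a weighted mean of sequencing reads over stability bins, variants kept only with over 10 reads, mCherry proximal and sfGFP distal, peptide attached via GGGS linker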
- protocol: protein stability index of tFT-peptide fusion (C-terminal peptide) (PSI (0-1 scale)); higher = more stable (slower turnover)
- experimental.parameters: genetic background: wild type; temperature: 30 C
measure.name: protein stability index

Examples with answers:
| biopolymer.sequence | test.system | measure.name | reported |
| --- | --- | --- | --- |
| VEAGDYAWDEAA | Saccharomyces cerevisiae | protein stability index | 0.657 |
| APLPPPPDPPLP | Saccharomyces cerevisiae | protein stability index | 0.695 |
| HFKHLALVQQFP | Saccharomyces cerevisiae | protein stability index | 0.69 |
| NKIVKYSKIRYK | Saccharomyces cerevisiae | protein stability index | 0.678 |
| PWAHIRTVQTYV | Saccharomyces cerevisiae | protein stability index | 0.437 |

Query: protein stability index; subject: KGEKKNEEEERG 0.68

Please do the same for SSHPMNQVIKDR as well. 0.659

Entry IIFCVRVVGGDL please 0.46

Note, next up: GGGAGVVWVRLG 0.235

Next entry: CWYRAVSIQYVL 0.306
